All figures here come from paper PMC8878317.

# Test system: P. falciparum 3D7 parasites
# experiment notes: Metabolomic profiling of compound-treated parasites (LC/MS)
# Format: cell-based
Recorded Metabolite data: CDP-Ethanolamine split into classes low = under -0.3, middle = from -0.3 up to 0.1, high = 0.1 and over

{"compound": "O=C1C(O)=C([C@H]2CC[C@H](c3ccc(Cl)cc3)CC2)C(=O)c2ccccc21 [Atovaquone, reference compound]", "assigned class": "middle"}
{"compound": "CCc1nc(N)nc(N)c1-c1ccc(Cl)cc1", "assigned class": "high"}
{"compound": "C[C@H]1Cc2c([nH]c3cc(Cl)c(F)cc23)[C@@]2(N1)C(=O)Nc1ccc(Cl)cc12", "assigned class": "middle"}
{"compound": "COc1cc2[nH]c(C)c(-c3ccc(Oc4ccc(OC(F)(F)F)cc4)cc3)c(=O)c2cc1Cl", "assigned class": "low"}
{"compound": "O=C(NNC(=O)c1csnn1)c1ccc(Cl)cc1", "assigned class": "high"}
{"compound": "CCN(CC)S(=O)(=O)c1ccc(Cl)c(C(=O)Nc2ccc3nc(C)sc3c2)c1", "assigned class": "middle"}
{"compound": "Cc1cc(Nc2ccc3ccccc3c2)n2ncnc2n1", "assigned class": "low"}
{"compound": "N#Cc1cc(NC(=O)[C@H]2c3ccccc3C(=O)N(CC(F)(F)F)[C@@H]2c2cccnc2)ccc1F", "assigned class": "middle"}
{"compound": "CC1(C)N=C(N)N=C(N)N1OCCCOc1cc(Cl)c(Cl)cc1Cl", "assigned class": "high"}
